- study-target: Pyochelin synthase PchD (Pseudomonas aeruginosa, UniProt Q9HWG3)
- Sequence (Q9HWG3 whole entry): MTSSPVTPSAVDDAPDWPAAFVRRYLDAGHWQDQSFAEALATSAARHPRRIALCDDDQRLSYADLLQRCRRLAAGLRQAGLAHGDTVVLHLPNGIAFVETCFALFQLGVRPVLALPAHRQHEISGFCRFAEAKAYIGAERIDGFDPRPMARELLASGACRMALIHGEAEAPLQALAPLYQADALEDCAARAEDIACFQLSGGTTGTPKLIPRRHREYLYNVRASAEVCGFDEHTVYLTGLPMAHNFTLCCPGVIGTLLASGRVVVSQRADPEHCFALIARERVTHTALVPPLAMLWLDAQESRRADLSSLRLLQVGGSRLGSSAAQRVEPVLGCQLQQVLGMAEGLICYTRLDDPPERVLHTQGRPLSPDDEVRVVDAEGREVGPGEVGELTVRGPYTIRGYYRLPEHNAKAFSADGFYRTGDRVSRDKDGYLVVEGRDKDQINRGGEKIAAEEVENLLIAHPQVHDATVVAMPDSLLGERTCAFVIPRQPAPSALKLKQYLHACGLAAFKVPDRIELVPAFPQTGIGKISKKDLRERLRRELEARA
- measurement-description: Inhibition of adenylation activity of Pseudomonas aeruginosa PchD after 15 mins by ATP-[32P]pyrophosphate exchange assay
experimental-endpoint: IC50 (nM)
Output spec: scalar in nM, unitless text.

Q: Using the record for "Nc1ncnc2c1ncn2[C@@H]1O[C@H](COS(=O)(=O)NC(=O)c2ccccc2O)[C@@H](O)[C@H]1O" , state its measured IC50.
Result: 12.5
